Source: patent US20260297042A1

Molecular target: Human PKMYT1 (Homo sapiens, UniProt Q99640)
Construct: Human PKMYT1 75-362 was cloned as a TEV cleavable 6xHis fusion; 6xHis (TEV cleavable) (cleaved yes); made in house; host or cells: bacterial cells
Sequence (Q99640 75-362): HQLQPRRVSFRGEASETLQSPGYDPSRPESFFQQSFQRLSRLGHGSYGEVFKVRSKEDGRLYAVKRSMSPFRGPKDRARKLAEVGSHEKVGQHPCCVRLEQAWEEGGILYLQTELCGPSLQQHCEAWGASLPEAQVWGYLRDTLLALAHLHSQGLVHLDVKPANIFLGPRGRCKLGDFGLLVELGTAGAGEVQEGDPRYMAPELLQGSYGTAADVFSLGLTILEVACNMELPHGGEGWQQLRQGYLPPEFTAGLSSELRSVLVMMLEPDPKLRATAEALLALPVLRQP
Assay: PKMYT1 biochemical ADP-Glo enzymatic assay
Conditions: ADP-Glo; 15 nM PKMYT1 kinase domain, 500 µM ATP, 60 minutes at 26° C.; banded
Counter-ions that a name gives are not always drawn.
Assay Endpoint: IC50

>>> df
                                    molecule                            assayed_system  assay_endpoint   recorded_result
 0  Cc1ccc(O)c(C)c1NC(=O)c1cnc(Nc2nccc(-c3ccc(Cl)cc3)n2)s1 [BAA-293]  Human PKMYT1 (Homo sapiens, UniProt Q99640)            IC50           < 50 nM
 1  Cc1ccc(O)c(C)c1NC(=O)c1cnc(Nc2cccc(S(C)(=O)=O)c2)s1 [BAA-276]  Human PKMYT1 (Homo sapiens, UniProt Q99640)            IC50           < 50 nM
 2  Cc1ccc(O)c(C)c1NC(=O)c1cnc(Nc2ccn(CC(=O)N3CCN(C4CCCCC4)CC3)n2)s1 [BAA-187]  Human PKMYT1 (Homo sapiens, UniProt Q99640)            IC50           < 50 nM
 3  Cc1ccc(O)c(C)c1NC(=O)c1cnc(NCCC(C)(C)C)s1 [BAA-074]  Human PKMYT1 (Homo sapiens, UniProt Q99640)            IC50  1000 to 11000 nM
 4  Cc1cn(-c2ccccc2)nc1Nc1ncc(C(=O)Nc2c(C)ccc(O)c2C)s1 [BAA-361]  Human PKMYT1 (Homo sapiens, UniProt Q99640)            IC50           < 50 nM
 5  Cc1ccc(O)c(C)c1NC(=O)c1cnc(Nc2cc(C)n(C)n2)s1 [BAA-122]  Human PKMYT1 (Homo sapiens, UniProt Q99640)            IC50     50 to 1000 nM
 6  Cc1ccc(O)c(C)c1NC(=O)c1cnc(NCc2ccccc2C2CC2)s1 [BAA-356]  Human PKMYT1 (Homo sapiens, UniProt Q99640)            IC50  1000 to 11000 nM
 7  Cc1ccc(O)c(C)c1NC(=O)c1cnc(Nc2ccn([C@H]3CCNC3)n2)s1 [BAA-057, (hydrochloride)]  Human PKMYT1 (Homo sapiens, UniProt Q99640)            IC50  1000 to 11000 nM
 8  Cc1ccc(O)c(C)c1NC(=O)c1cnc(Nc2ccn(CC(F)(F)F)n2)s1 [BAA-019]  Human PKMYT1 (Homo sapiens, UniProt Q99640)            IC50     50 to 1000 nM
 9  CCN(CC)C(=O)Cn1nc(Nc2ncc(C(=O)Nc3c(C)ccc(O)c3C)s2)cc1C [BAA-204]  Human PKMYT1 (Homo sapiens, UniProt Q99640)            IC50           < 50 nM
10  Cc1cn(S(=O)(=O)c2ccccc2)nc1Nc1ncc(C(=O)Nc2c(C)ccc(O)c2C)s1 [BAA-379]  Human PKMYT1 (Homo sapiens, UniProt Q99640)            IC50           < 50 nM
11  Cc1ccc(O)c(C)c1NC(=O)c1cnc(Nc2c3cccnc3nn2C)s1 [BAA-243]  Human PKMYT1 (Homo sapiens, UniProt Q99640)            IC50           < 50 nM
12  Cc1ccc(O)c(C)c1NC(=O)c1cnc(Nc2ccn(CC(=O)N3CCN(C(=O)OC(C)(C)C)C(C)(C)C3)n2)s1 [BAA-179]  Human PKMYT1 (Homo sapiens, UniProt Q99640)            IC50           < 50 nM
13  Cc1ccc(O)c(C)c1NC(=O)c1cnc(Nc2cc(C(F)(F)F)nn2C)s1 [BAA-046]  Human PKMYT1 (Homo sapiens, UniProt Q99640)            IC50     50 to 1000 nM
14  Cc1ccc(NC(=O)C(C)(C)C)nc1Nc1ncc(C(=O)Nc2c(C)ccc(O)c2C)s1 [BAA-323]  Human PKMYT1 (Homo sapiens, UniProt Q99640)            IC50           < 50 nM
15  Cc1ccc(O)c(C)c1NC(=O)c1cnc(Nc2cc(C(F)(F)F)nc(OCC(F)(F)F)n2)s1 [BAA-318]  Human PKMYT1 (Homo sapiens, UniProt Q99640)            IC50     50 to 1000 nM
16  Cc1cnccc1-n1cc(C)c(Nc2ncc(C(=O)Nc3c(C)ccc(O)c3C)s2)n1 [BAA-384]  Human PKMYT1 (Homo sapiens, UniProt Q99640)            IC50           < 50 nM
17  Cc1ccc(O)c(C)c1NC(=O)c1cnc(Nc2nc3ccccc3o2)s1 [BAA-044]  Human PKMYT1 (Homo sapiens, UniProt Q99640)            IC50     50 to 1000 nM
18  Cc1ccc(O)c(C)c1NC(=O)c1cnc(Nc2ccn(CC3CCOC3)n2)s1 (centres unmarked) [BAA-032]  Human PKMYT1 (Homo sapiens, UniProt Q99640)            IC50     50 to 1000 nM
19  Cc1ccc(O)c(C)c1NC(=O)c1cnc(Nc2nn(C)cc2C(N)=O)s1 [BAA-254]  Human PKMYT1 (Homo sapiens, UniProt Q99640)            IC50     50 to 1000 nM
20  Cc1ccc(O)c(C)c1NC(=O)c1cnc(Nc2ccn(CC(=O)NCCCO)n2)s1 [BAA-159]  Human PKMYT1 (Homo sapiens, UniProt Q99640)            IC50           < 50 nM
21  Cc1ccc(O)c(C)c1NC(=O)c1cnc(Nc2cccc(N(C)C(=O)c3c(F)cc(F)cc3F)n2)s1 [BAA-325]  Human PKMYT1 (Homo sapiens, UniProt Q99640)            IC50     50 to 1000 nM
22  Cc1ccc(O)c(C)c1NC(=O)c1cnc(Nc2cc(C(=O)OC(C)(C)C)n(C)n2)s1 [BAA-253]  Human PKMYT1 (Homo sapiens, UniProt Q99640)            IC50     50 to 1000 nM
23  Cc1ccc(O)c(C)c1NC(=O)c1cnc(Nc2cc3ccccn3n2)s1 [BAA-048]  Human PKMYT1 (Homo sapiens, UniProt Q99640)            IC50     50 to 1000 nM
24  Cc1nnc(Nc2ncc(C(=O)Nc3c(C)ccc(O)c3C)s2)s1 [BAA-263]  Human PKMYT1 (Homo sapiens, UniProt Q99640)            IC50     50 to 1000 nM
25  Cc1ccc(O)c(C)c1NC(=O)c1cnc(Nc2ccn(CC(=O)N3CCC(F)(F)CC3)n2)s1 [BAA-136]  Human PKMYT1 (Homo sapiens, UniProt Q99640)            IC50           < 50 nM
26  Cc1cn(CC(=O)N2CCN(C)CC2)nc1Nc1ncc(C(=O)Nc2c(C)ccc(O)c2C)s1 [BAA-205]  Human PKMYT1 (Homo sapiens, UniProt Q99640)            IC50           < 50 nM
27  Cc1ccc(O)c(C)c1NC(=O)c1cnc(Nc2nn(C)c3c2CCC3)s1 [BAA-247]  Human PKMYT1 (Homo sapiens, UniProt Q99640)            IC50     50 to 1000 nM
28  COCCn1ccc(Nc2ncc(C(=O)Nc3c(C)ccc(O)c3C)s2)n1 [BAA-040]  Human PKMYT1 (Homo sapiens, UniProt Q99640)            IC50     50 to 1000 nM
29  Cc1ccc(O)c(C)c1NC(=O)c1cnc(Nc2nn(C)c3c2CCCC3)s1 [BAA-246]  Human PKMYT1 (Homo sapiens, UniProt Q99640)            IC50  1000 to 11000 nM
30  Cc1ccc(O)c(C)c1NC(=O)c1cnc(Nc2ccnn2C)s1 [BAA-010]  Human PKMYT1 (Homo sapiens, UniProt Q99640)            IC50     50 to 1000 nM
31  CCNC(=O)Cn1ccc(Nc2ncc(C(=O)Nc3c(C)ccc(O)c3C)s2)n1 [BAA-188]  Human PKMYT1 (Homo sapiens, UniProt Q99640)            IC50           < 50 nM
32  CCOC(=O)c1coc(Nc2ncc(C(=O)Nc3c(C)ccc(O)c3C)s2)n1 [BAA-045]  Human PKMYT1 (Homo sapiens, UniProt Q99640)            IC50     50 to 1000 nM
33  Cc1ccc(O)c(C)c1NC(=O)c1cnc(Nc2ccc(-c3ccc(F)cc3)cn2)s1 [BAA-291]  Human PKMYT1 (Homo sapiens, UniProt Q99640)            IC50  1000 to 11000 nM
34  Cc1ccc(O)c(C)c1NC(=O)c1cnc(Nc2c(C)cnn2Cc2cccc(F)c2)s1 [BAA-375]  Human PKMYT1 (Homo sapiens, UniProt Q99640)            IC50  1000 to 11000 nM
